Tested on: SN12C renal
Test: NCI-60 one-dose screen, 48 h (100 = growth as untreated, 0 = no growth, -100 = all killed)
Conditions: 10 µM unless noted
The panel holds about 83,000 compounds, 20% with a hit somewhere; the sample as a whole holds those more often.
PROPERTY MEASURED: growth (%)
Give the value in % but do not write % after it.

A selection of reference data follows.
Reported growth for C#CCNC(=O)[C@H](Cc1ccccc1)NC(=O)[C@]12CC[C@@H](C(=C)C)[C@@H]1[C@H]1CC[C@@H]3[C@@]4(C)CCC(=O)C(C)(C)[C@@H]4CC[C@@]3(C)[C@]1(C)CC2 was 76

Value of growth reported for the molecule CC(=O)c1cc2c(N)c(C(=O)Nc3cccc4ccncc34)sc2nc1C is 99.9

Kindly note the recorded growth for C=C(C)[C@@H]1CC[C@]2(C(=O)N3CCN(C)CC3)CC[C@]3(C)[C@H](CC[C@@H]4[C@@]5(C)CC[C@H](O)C(C)(C)[C@@H]5CC[C@]43C)[C@@H]12 , which is -74.2

The value of growth measured for the molecule O=c1ccc(-c2nc(N3CCOCC3)c3ccccc3n2)c[nH]1 turned out to be 94.6

Others:
// growth value for O=C(CCN1CCCC1)Nc1ccc2c(NCc3ccccc3)c3ccccc3nc2c1 : -5.99

Recorded growth (molecule COc1ccc(C(=O)/C=C/c2cc3ccccc3n3nnnc23)cc1 ): 102

response.value for CCOC(=O)c1cc(C(=O)c2ccc(Br)cc2)n2ccc(/C=C/c3cc[n+](CC(=O)c4ccc(OC)cc4)cc3)cc12 (field: growth) = 78

For O=C(Nc1ccc(Cl)cc1)c1cc(NCc2cc(O)ccc2O)ccc1O the molecule record lists growth as 76.1
